Test: The drug is tested on Bacteroides cellulosilyticus strain: DSM14838 for biotransformation. The drug concentrations were measured before and after a 12-h incubation by liquid-chromatography-coupled mass spectrometry (LC–MS)
Conditions: 2 µM
Attribute Measured: Bacterial Biotransformation

In the examples that follow, each entry is paired with its recorded Bacterial Biotransformation.
[Q] Give a short answer stating reported Bacterial Biotransformation for COc1ccc([C@@H]2Sc3ccccc3N(CCN(C)C)C(=O)[C@@H]2OC(C)=O)cc1 [DILTIAZEM] .
[A] Compound metabolized

[Q] Give a short answer stating reported Bacterial Biotransformation for COc1ccc(CCN(C)CCCC(C#N)(c2ccc(OC)c(OC)c2)C(C)C)cc1OC (configuration not stated) .
[A] Compound NOT metabolized

[Q] Give a short answer stating reported Bacterial Biotransformation for CC(=O)SCC(Cc1ccccc1)C(=O)NCC(=O)OCc1ccccc1 (configuration not stated) [RACECADOTRIL] .
[A] Compound metabolized

[Q] Give a short answer stating reported Bacterial Biotransformation for CN1CCc2cccc3c2[C@H]1Cc1ccc(O)c(O)c1-3 [APOMORPHINE] .
[A] Compound NOT metabolized

[Q] Give a short answer stating reported Bacterial Biotransformation for `Cc1cc2c(cc1S(N)(=O)=O)S(=O)(=O)CCC2` .
[A] Compound NOT metabolized

---
[Q] Give a short answer stating reported Bacterial Biotransformation for COc1ccc2cc([C@H](C)C(=O)O)ccc2c1 [NAPROXEN] .
[A] Compound NOT metabolized

[Q] Give a short answer stating reported Bacterial Biotransformation for Cc1ccc(S(=O)(=O)NC(=O)NN2CCCCCC2)cc1 [TOLAZAMIDE] .
[A] Compound metabolized

[Q] Give a short answer stating reported Bacterial Biotransformation for CCc1oc2ccccc2c1C(=O)c1cc(Br)c(O)c(Br)c1 [BENZBROMARONE] .
[A] Compound NOT metabolized

[Q] Give a short answer stating reported Bacterial Biotransformation for OCCN1CCN(CCCN2c3ccccc3Sc3ccc(C(F)(F)F)cc32)CC1 [FLUPHENAZINE] .
[A] Compound metabolized

[Q] Give a short answer stating reported Bacterial Biotransformation for Cc1nc(Nc2ncc(C(=O)Nc3c(C)cccc3Cl)s2)cc(N2CCN(CCO)CC2)n1.O [DASATINIB] .
[A] Compound NOT metabolized

[Q] Give a short answer stating reported Bacterial Biotransformation for CN1C[C@H](C(=O)N[C@]2(C)O[C@@]3(O)[C@@H]4CCCN4C(=O)[C@H](Cc4ccccc4)N3C2=O)C=C2c3cccc4[nH]cc(c34)C[C@H]21.CN1C[C@H](C(=O)N[C@]2(C)O[C@@]3(O)[C@@H]4CCCN4C(=O)[C@H](Cc4ccccc4)N3C2=O)C=C2c3cccc4[nH]cc(c34)C[C@H]21.O=C(O)C(O)C(O)C(=O)O [ERGOTAMINE TARTRATE] .
[A] Compound metabolized

[Q] Give a short answer stating reported Bacterial Biotransformation for Cc1nc2n(c(=O)c1CCN1CCC(c3noc4cc(F)ccc34)CC1)CCCC2 [RISPERIDONE] .
[A] Compound NOT metabolized

[Q] Give a short answer stating reported Bacterial Biotransformation for CCCCCNC(=N)N/N=C/c1c[nH]c2ccc(OC)cc12.O=C(O)/C=C\C(=O)O [TEGASEROD MALEATE] .
[A] Compound NOT metabolized
